experiment: solvent given as SMILES; settings: in ClC(Cl)Cl
Label true (1) when absorption maximum is at or above 400 nm; anything below gets false (0).

Given the entry CCCCCCCCc1ccc(-c2c3cc(-c4cc(CCCCCCCC)c(-c5ccc(-c6sc(/C=C7\SC(SCC)=NC7=O)cc6CCCCCCCC)s5)s4)sc3c(-c3ccc(CCCCCCCC)s3)c3cc(-c4cc(CCCCCCCC)c(-c5ccc(-c6sc(/C=C7\SC(SCC)=NC7=O)cc6CCCCCCCC)s5)s4)sc23)s1 , answer whether its absorption maximum meets or surpasses 400 nm.
true (1)

Given the entry CSc1cc(-c2cc3cc4c5c(c3oc2=O)CCCN5CCC4)oc(=O)c1C#N , answer whether its absorption maximum meets or surpasses 400 nm.
true (1)

Given the entry CN(C)c1ccc(/C=C2/N=C(c3ccccc3)OC2=O)cc1 , answer whether its absorption maximum meets or surpasses 400 nm.
true (1)

Given the entry COc1ccc(-c2cc(-c3ccc(C)cc3)nc3c(C#N)c(N4CCCC4)nc(N)c23)cc1 , answer whether its absorption maximum meets or surpasses 400 nm.
true (1)

Given the entry COc1c(C)c2c(c(C)c1Cl)Oc1c(C=O)c(O)c(Cl)c(C)c1C(=O)O2 , answer whether its absorption maximum meets or surpasses 400 nm.
false (0)

Given the entry CN(C)c1ccc(-c2ccc(-c3cc(N4CCCCC4)c(C#N)c4c3-c3ccccc3CC4)s2)cc1 , answer whether its absorption maximum meets or surpasses 400 nm.
false (0)

Given the entry CC1=CC(C)=[N+]2C1=C(c1ccc(I)cc1)c1c(C)cc(C)n1[B-]2(F)F , answer whether its absorption maximum meets or surpasses 400 nm.
true (1)

Given the entry COc1ccc2cc(C#Cc3ccc([N+](=O)[O-])cc3)ccc2c1 , answer whether its absorption maximum meets or surpasses 400 nm.
false (0)

Given the entry CCCCCCCCN1C(=O)c2ccc3c4c(-c5ccc(N(c6ccccc6)c6ccccc6)cc5)cc5c6c(ccc(c7c(-c8ccc(N(c9ccccc9)c9ccccc9)cc8)cc(c2c37)C1=O)c64)C(=O)N(CCCCCCCC)C5=O , answer whether its absorption maximum meets or surpasses 400 nm.
true (1)

Given the entry COc1ccccc1-c1c(-c2ccccc2O)nc(-c2ccc(C(F)(F)F)cc2)n1-c1ccc(C)cc1 , answer whether its absorption maximum meets or surpasses 400 nm.
false (0)

Given the entry C(#Cc1ccccc1)C(C#Cc1ccccc1)=Cc1ccc(C=C(C#Cc2ccccc2)C#Cc2ccccc2)cc1 , answer whether its absorption maximum meets or surpasses 400 nm.
true (1)

Given the entry CN(C)c1ccc(/C=C2\CCCC2=O)cc1 , answer whether its absorption maximum meets or surpasses 400 nm.
false (0)

Given the entry F[B-]1(F)OC(c2ccc(C(F)(F)F)cc2)=Cc2ccc3ccccc3[n+]21 , answer whether its absorption maximum meets or surpasses 400 nm.
true (1)

Given the entry Cc1ccc(/C2=c3\cc/c(o3)=C(\c3ccc(C)cc3)c3ccc([nH]3)-c3ccc4n3[B-](F)(F)[N+]3=C(C=CC3=C4c3cccs3)c3ccc2[nH]3)cc1 , answer whether its absorption maximum meets or surpasses 400 nm.
true (1)

Given the entry Cc1cc(C)c(C2=C3C=CC(c4ccc5c(ccc6ccccc65)c4)=[N+]3[B-](F)(F)n3c2ccc3-c2ccc3c(ccc4ccccc43)c2)c(C)c1 , answer whether its absorption maximum meets or surpasses 400 nm.
true (1)

Given the entry Cc1nc2c(ccc3c2sc(/C=C/c2cc4c5c(c2)CCCN5CCC4)[n+]3C)s1 , answer whether its absorption maximum meets or surpasses 400 nm.
true (1)

Given the entry Oc1ccc(C2=[N+]3C(=C(c4ccccc4)c4cccn4[B-]3(F)F)C=C2)cc1 , answer whether its absorption maximum meets or surpasses 400 nm.
true (1)

Given the entry CC(C)(C)c1cc(C(C)(C)C)c2oc3c(c2c1)C=CN1C(=O)C2=C4c5oc6c(C(C)(C)C)cc(C(C)(C)C)cc6c5C=CN4C(=O)C2=C31 , answer whether its absorption maximum meets or surpasses 400 nm.
true (1)

Given the entry CC(=O)c1ccc(/N=N/c2ccc(Nc3ccccc3)cc2)cc1 , answer whether its absorption maximum meets or surpasses 400 nm.
true (1)

Given the entry CCCCCCCCCCCCOc1cc2c3cc(OCCCCCCCCCCCC)c(OCCCCCCCCCCCC)cc3c3c(cc(OCCCCCCCCCCCC)c4nc5cc(C#Cc6ccc(CCCCCCCCCC)cc6)c(C#Cc6ccc(CCCCCCCCCC)cc6)cc5nc43)c2cc1OCCCCCCCCCCCC , answer whether its absorption maximum meets or surpasses 400 nm.
true (1)

Given the entry Cc1ccc(C2=Cc3ccc4ccccc4[n+]3[B-](F)(F)O2)cc1 , answer whether its absorption maximum meets or surpasses 400 nm.
true (1)

Given the entry CCCCCCCCC1(CCCCCCCC)c2cc(C#CC#Cc3ccc(N(c4ccccc4)c4ccccc4)cc3)ccc2-c2ccc(C=O)cc21 , answer whether its absorption maximum meets or surpasses 400 nm.
false (0)

Given the entry F[B-]1(F)n2c(cc(Br)c2Br)C(c2ccccc2)=C2C=C(Br)C(c3ccc[nH]3)=[N+]21 , answer whether its absorption maximum meets or surpasses 400 nm.
true (1)

Given the entry Cc1cc(-c2ccccc2)nc2c1ccc1nc(-c3ccccc3)cn12 , answer whether its absorption maximum meets or surpasses 400 nm.
false (0)

Given the entry CCCCCCN1C(=O)c2cccc3c(-c4ccc(Cl)s4)ccc(c23)C1=O , answer whether its absorption maximum meets or surpasses 400 nm.
false (0)

Given the entry CN(C)c1ccc(/C=C/C(=O)c2ccc(Cl)cc2)cc1 , answer whether its absorption maximum meets or surpasses 400 nm.
true (1)

Given the entry COc1ccc(-c2cc(C)nc(-c3ccc(-n4c5ccccc5c5ccccc54)cc3)n2)cc1 , answer whether its absorption maximum meets or surpasses 400 nm.
false (0)

Given the entry COc1ccc2cc(-c3ccc(S(C)(=O)=O)cc3)oc(=O)c2c1 , answer whether its absorption maximum meets or surpasses 400 nm.
false (0)

Given the entry CN1C(=CC2=C([S-])C(=CC3=[N+](C)c4ccccc4C3(C)C)C2=O)C(C)(C)c2ccccc21 , answer whether its absorption maximum meets or surpasses 400 nm.
true (1)

Given the entry CC(C)(C)c1ccc2c(c1)c1cc(C(C)(C)C)ccc1n2-c1ccc(C#Cc2ccccc2)cc1 , answer whether its absorption maximum meets or surpasses 400 nm.
false (0)

---

Please go through the items and note down their absorption maximum.
assay: solvent given as SMILES; conditions: in ClCCl
Your answer should be a plain number; it is taken to be in nm.

Query COc1ccc(-c2c3cc4cc(C)sc4cc3c(C#Cc3ccccc3)c3cc4cc(C)sc4cc23)cc1 yields absorption maximum of 539

Query CCCCCCc1ccc(-n2c3[n+](c4c5ccccc5c5ccccc5c42)[B-](C)(C)c2ccccc2-3)cc1 yields absorption maximum of 361

Query COc1ccc2cc(C3=[N+]4C(=Nc5c(-c6ccc7ccccc7c6)cc(-c6ccc7cc(OC)ccc7c6)n5[B-]4(F)F)C(c4ccc5ccccc5c4)=C3)ccc2c1 yields absorption maximum of 718

Query COC(=O)c1ccc(C2=C3C=c4sc(-c5cccs5)cc4=[N+]3[B-](F)(F)n3c2cc2sc(-c4cccs4)cc23)cc1 yields absorption maximum of 684

Query C(=C\c1ccnc(/C=C/c2ccc(N(c3ccccc3)c3ccccc3)cc2)n1)/c1ccc(N(c2ccccc2)c2ccccc2)cc1 yields absorption maximum of 402

Query CN(C)c1ccc(-c2cc(-c3ccccc3)nn2C)cc1 yields absorption maximum of 280

Query CCC1=C(C)C2=Cc3c4ccccc4c4n3[B-](C)(Oc3ccccc3-4)[N+]2=C1C (stereo unspecified) yields absorption maximum of 622

Query CC(C)(C)NC(=O)c1ccc(-c2ccc(N3c4ccccc4Oc4ccccc43)cc2)c2ccc3c4ccc(F)cc4c4cc(F)ccc4c3c12 yields absorption maximum of 331

Query COc1ccc2cc(C3=[N+]4C(=Nc5c(-c6ccccc6)cc(-c6ccc7cc(OC)ccc7c6)n5[B-]4(F)F)C(c4ccccc4)=C3Br)ccc2c1 yields absorption maximum of 695

Query Cc1cccc(-c2[nH]c(=O)n3c2-c2ccccc2C3=O)c1O yields absorption maximum of 392

Query CCN1C(=O)C(C2C(=O)c3c4ccccc4cc4cc5ccccc5c2c34)C(=O)N(CC)C1=S (stereo unspecified) yields absorption maximum of 532.11

Query COc1ccc(-c2cc(-c3ccccc3)nn2C)cc1 yields absorption maximum of 257

Query COCCOCCOCCOCC(COCCOCCOCCOC)Oc1cc(/C=C/c2ccc(/C=C(\C#N)c3ccccn3)cc2)c(OC(COCCOCCOCCOC)COCCOCCOCCOC)cc1/C=C/c1ccc(/C=C(\C#N)c2ccccn2)cc1 yields absorption maximum of 443

Query COC(=O)c1c(-c2cc3ccccc3oc2=O)nn(-c2cccc(Cl)c2)c1C(=O)OC yields absorption maximum of 273

Query c1ccc(N2c3ccccc3C3(c4ccccc4-c4ccccc43)c3ccccc32)cc1 yields absorption maximum of 310

Query CCCCC(CC)Cn1c2cc(C#N)c(-c3ccc(N(c4ccccc4)c4ccccc4)cc3)cc2c2cc(-c3ccc(N(c4ccccc4)c4ccccc4)cc3)c(C#N)cc21 (stereo unspecified) yields absorption maximum of 420
